target: SNRK (human) (UniProt Q9NRH2); assay: KINOMEscan competition binding; details: compound 10.0 µM
Sequence (Q9NRH2 whole entry, looked up): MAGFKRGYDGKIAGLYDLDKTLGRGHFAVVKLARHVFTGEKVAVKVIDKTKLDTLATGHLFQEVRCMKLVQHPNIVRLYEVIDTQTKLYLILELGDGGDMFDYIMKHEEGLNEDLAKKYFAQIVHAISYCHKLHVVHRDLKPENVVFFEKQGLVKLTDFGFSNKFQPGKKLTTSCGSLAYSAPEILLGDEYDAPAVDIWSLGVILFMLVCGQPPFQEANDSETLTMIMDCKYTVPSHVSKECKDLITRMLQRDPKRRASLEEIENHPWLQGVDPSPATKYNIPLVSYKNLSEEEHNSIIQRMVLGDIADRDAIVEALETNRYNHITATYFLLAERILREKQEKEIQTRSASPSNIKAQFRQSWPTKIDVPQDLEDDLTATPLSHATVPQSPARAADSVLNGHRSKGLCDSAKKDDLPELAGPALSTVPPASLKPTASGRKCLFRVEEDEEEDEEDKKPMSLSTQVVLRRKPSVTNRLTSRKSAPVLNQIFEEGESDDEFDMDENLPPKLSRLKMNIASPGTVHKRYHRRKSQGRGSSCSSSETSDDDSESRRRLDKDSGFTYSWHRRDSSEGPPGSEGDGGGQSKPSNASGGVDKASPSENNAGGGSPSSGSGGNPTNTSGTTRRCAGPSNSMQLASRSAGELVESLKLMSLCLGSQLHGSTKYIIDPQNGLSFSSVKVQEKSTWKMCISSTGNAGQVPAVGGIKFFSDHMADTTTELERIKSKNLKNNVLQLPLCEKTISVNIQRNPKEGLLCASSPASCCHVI
Assay metric: kinase still bound, per cent of control (%)

>>> numeric_value("CCC(=O)N1CCN(c2ccc(-n3c(=O)ccc4cnc5ccc(-c6cnc7ccccc7c6)cc5c43)cc2C(F)(F)F)CC1")
60
>>> numeric_value("O=C(NC1CC1)c1cccc(-c2ccc3c(NC(=O)C4CC4)n[nH]c3c2)c1")
100
>>> numeric_value("Cc1ccc(NC(=O)c2cccc(C(C)(C)C#N)c2)cc1Nc1ccc2ncn(C)c(=O)c2c1")
100
>>> numeric_value("O=C(O)c1ccc(Nc2ncc3c(n2)-c2ccc(Cl)cc2C(c2c(F)cccc2F)=NC3)cc1")
74
>>> numeric_value("CCCS(=O)(=O)Nc1ccc(F)c(C(=O)c2c[nH]c3ncc(-c4ccc(Cl)cc4)cc23)c1F")
100
>>> numeric_value("C[C@@H](Oc1cc(-n2cnc3ccc(CN4CCN(C)CC4)cc32)sc1C(N)=O)c1ccccc1C(F)(F)F")
100
>>> numeric_value("CCN1CCN(Cc2ccc(Nc3ncc4c(n3)N(C)c3ccccc3C(=O)N4C)cc2C(F)(F)F)CC1")
88
>>> numeric_value("C=CC(=O)Nc1cccc(Nc2nc(N[C@H]3CC[C@H](N(C)C)CC3)nc3c2ncn3C(C)C)c1")
68
>>> numeric_value("CN(C)C/C=C/C(=O)Nc1cccc(Nc2ncc3c(n2)N(C)c2ccccc2C(=O)N3C)c1")
58
>>> numeric_value("N#Cc1c(NC(=O)c2cccc3ccccc23)sc2c1CCCC2")
100
>>> numeric_value("O=C1Nc2ccc(I)cc2/C1=C/c1cc(Br)c(O)c(Br)c1")
99
>>> numeric_value("COc1cc(N2CCN(C)CC2)ccc1Nc1nc(N)c(C(=O)c2c(Cl)cccc2Cl)s1")
82
>>> numeric_value("Cc1ccc2nc(NCCN)c3ncc(C)n3c2c1")
100
>>> numeric_value("O=C(NOC[C@H](O)CO)c1ccc(F)c(F)c1Nc1ccc(I)cc1F")
100
>>> numeric_value("Nc1ccc(-c2ccc3ncc4ccc(=O)n(-c5cccc(C(F)(F)F)c5)c4c3c2)cn1")
100
>>> numeric_value("CCOc1cc2ncc(C#N)c(Nc3ccc(OCc4ccccn4)c(Cl)c3)c2cc1NC(=O)/C=C/CN(C)C")
51
>>> numeric_value("C=CC(=O)Nc1cc(NC(=O)c2ccc(C)c(NC(=O)c3ccno3)c2)cc(C(F)(F)F)c1")
100
>>> numeric_value("Cc1cc([C@@H](C)Nc2ccccc2C(=O)O)c2nc(N3CCOCC3)cc(=O)n2c1")
89
